- Tested on: SNB-75
- test: NCI tumour cell line growth inhibition, 48 h
Active and inactive are the calls of the source. Rule as the data show it: active = GI50 up to about 1.1 µM and inactive = higher.
reported_endpoint: GI50

compound | value_reported
CCC/C(=N/NC(=O)C(N)=O)C(CC)C(=O)CCC(=O)N(Cc1ccccc1)Cc1ccccc1 (configuration not stated) | > 100 µM (inactive)

Parameter requested: GI50. Apply to each item below.
1. CCOC(=O)N1CCN(c2ccc3ccc(N)nc3n2)CC1
2. c1ccc(C(=NNc2nc3ccccc3[nH]2)c2ccccn2)nc1
3. COCC(=O)CP(=O)(OC)OC
4. Fc1cc(-c2ncc(Cl)cc2Cl)c2cccccc1-2
5. CC(=O)CC1CCC(=O)CCC(=O)OC(CC(C)=O)CCC(=O)CCC(=O)O1 (configuration not stated)

> 100 µM (inactive)
0.218 µM (active)
> 100 µM (inactive)
> 100 µM (inactive)
> 100 µM (inactive)

Parameter requested: GI50. Apply to each item below.
1. CN1CC2CN(Cc3ccccc3)CCN2c2cccnc21 (configuration not stated)
2. CCCCCCCCCCCC(=O)OCC1OC(n2cc(F)c(=O)[nH]c2=O)C(NC(=O)OCc2ccccc2)C(O)C1O (configuration not stated)

1. 41.3 µM (inactive)
2. 11.1 µM (inactive)

Each recorded value in this set is attributed to ChEMBL document CHEMBL1201862.
